Assay: Miscibility with solvents, visual evaluation at 5 wt %
Assay type: physicochemical
Parameters: key: ⊚: dissolves at room temperature; ◯: dissolves when heated for 5 minutes at 40° C.; Δ: dissolves under heating, but cooling precipitates crystals; X: does not dissolve
Settings: complex added at 5 wt %
PROPERTY_MEASURED: Miscibility, Chloroform

[[record]]
compound = "O=S(=O)([N-]S(=O)(=O)C(F)(F)F)C(F)(F)F.O=S(=O)([N-]S(=O)(=O)C(F)(F)F)C(F)(F)F.O=S(=O)([N-]S(=O)(=O)C(F)(F)F)C(F)(F)F.O=S(c1ccccc1)c1ccccc1.O=S(c1ccccc1)c1ccccc1.O=S(c1ccccc1)c1ccccc1.O=S(c1ccccc1)c1ccccc1.O=S(c1ccccc1)c1ccccc1.O=S(c1ccccc1)c1ccccc1.O=S(c1ccccc1)c1ccccc1.O=S(c1ccccc1)c1ccccc1.[Tb+3] [Tb(PMS)3(DPSO)8]"
reported = "◯"

[[record]]
compound = "O=S(=O)([N-]S(=O)(=O)C(F)(F)F)C(F)(F)F.O=S(=O)([N-]S(=O)(=O)C(F)(F)F)C(F)(F)F.O=S(=O)([N-]S(=O)(=O)C(F)(F)F)C(F)(F)F.[Eu+3].c1cnc2c(c1)ccc1cccnc12.c1cnc2c(c1)ccc1cccnc12.c1cnc2c(c1)ccc1cccnc12.c1cnc2c(c1)ccc1cccnc12 [Eu(PMS)3(Phen)m]"
reported = "Δ"

[[record]]
compound = "O=C(C=C([O-])C(F)(F)F)C(F)(F)F.O=C(C=C([O-])C(F)(F)F)C(F)(F)F.O=C(C=C([O-])C(F)(F)F)C(F)(F)F.O=P(c1ccccc1)(c1ccccc1)c1ccccc1.O=P(c1ccccc1)(c1ccccc1)c1ccccc1.[Nd+3] [Nd(HFA)3(TPPO)2, reference compound]"
reported = "◯"


* * *

Test: Number of moles of bound water per mole of complex (TG-DTA)
Format: physicochemical
Settings: Table 1; dried samples for the ternary complexes
Method: The number of moles of bound water per mole of complex was measured using a TG-DTA 2000 from MAC Science. A 20 g quantity of Eu(PMS)3 was added to 100 mL of isopropanol, then 43 g ([…] the molar amount of the Eu(PMS)3) of triphenylphosphine oxide (hereinafter referred to as TPPO) was added, and the system was refluxed for 3 hours, and then gradually cooled. The resulting white powder was filtered off. […]
PROPERTY_MEASURED: Bound water (number of moles of bound water per mole of complex)
Give the value as a plain number.

[[record]]
input_smiles = "O=P(c1ccccc1)(c1ccccc1)c1ccccc1.O=P(c1ccccc1)(c1ccccc1)c1ccccc1.O=P(c1ccccc1)(c1ccccc1)c1ccccc1.O=P(c1ccccc1)(c1ccccc1)c1ccccc1.O=P(c1ccccc1)(c1ccccc1)c1ccccc1.O=P(c1ccccc1)(c1ccccc1)c1ccccc1.O=P(c1ccccc1)(c1ccccc1)c1ccccc1.O=P(c1ccccc1)(c1ccccc1)c1ccccc1.O=S(=O)([N-]S(=O)(=O)C(F)(F)F)C(F)(F)F.O=S(=O)([N-]S(=O)(=O)C(F)(F)F)C(F)(F)F.O=S(=O)([N-]S(=O)(=O)C(F)(F)F)C(F)(F)F.[Eu+3]"
reported = 0.18


Next, consider the following molecule.
Please report the recorded Bound water (number of moles of bound water per mole of complex) for O=P(c1ccccc1)(c1ccccc1)c1ccccc1.O=P(c1ccccc1)(c1ccccc1)c1ccccc1.O=P(c1ccccc1)(c1ccccc1)c1ccccc1.O=P(c1ccccc1)(c1ccccc1)c1ccccc1.O=P(c1ccccc1)(c1ccccc1)c1ccccc1.O=P(c1ccccc1)(c1ccccc1)c1ccccc1.O=P(c1ccccc1)(c1ccccc1)c1ccccc1.O=P(c1ccccc1)(c1ccccc1)c1ccccc1.O=S(=O)([N-]S(=O)(=O)C(F)(F)F)C(F)(F)F.O=S(=O)([N-]S(=O)(=O)C(F)(F)F)C(F)(F)F.O=S(=O)([N-]S(=O)(=O)C(F)(F)F)C(F)(F)F.[Tb+3] .
0.08

* * *

Experiment: Miscibility with solvents, visual evaluation at 5 wt %
Assay type: physicochemical
Set-up: key: ⊚: dissolves at room temperature; ◯: dissolves when heated for 5 minutes at 40° C.; Δ: dissolves under heating, but cooling precipitates crystals; X: does not dissolve
Settings: complex added at 5 wt %
PROPERTY_MEASURED: Miscibility, Chloroform

[[record]]
molecule = "O=S(=O)([N-]S(=O)(=O)C(F)(F)F)C(F)(F)F.O=S(=O)([N-]S(=O)(=O)C(F)(F)F)C(F)(F)F.O=S(=O)([N-]S(=O)(=O)C(F)(F)F)C(F)(F)F.O=S(c1ccccc1)c1ccccc1.O=S(c1ccccc1)c1ccccc1.O=S(c1ccccc1)c1ccccc1.O=S(c1ccccc1)c1ccccc1.O=S(c1ccccc1)c1ccccc1.O=S(c1ccccc1)c1ccccc1.O=S(c1ccccc1)c1ccccc1.O=S(c1ccccc1)c1ccccc1.[Nd+3] [Nd(PMS)3(DPSO)8]"
reported = "◯"

[[record]]
molecule = "O=P(c1ccccc1)(c1ccccc1)c1ccccc1.O=P(c1ccccc1)(c1ccccc1)c1ccccc1.O=P(c1ccccc1)(c1ccccc1)c1ccccc1.O=P(c1ccccc1)(c1ccccc1)c1ccccc1.O=P(c1ccccc1)(c1ccccc1)c1ccccc1.O=P(c1ccccc1)(c1ccccc1)c1ccccc1.O=P(c1ccccc1)(c1ccccc1)c1ccccc1.O=P(c1ccccc1)(c1ccccc1)c1ccccc1.O=S(=O)([N-]S(=O)(=O)C(F)(F)F)C(F)(F)F.O=S(=O)([N-]S(=O)(=O)C(F)(F)F)C(F)(F)F.O=S(=O)([N-]S(=O)(=O)C(F)(F)F)C(F)(F)F.[Eu+3] [Eu(PMS)3(TPPO)8]"
reported = "⊚"


* * *

Listed below: Relative luminescence intensity values for each entry.
Test: Luminescence quantum yield and luminescence intensity in PMMA polymer matrix composition
Type: physicochemical
Settings: PMMA rod, Eu 0.7 wt %; relative to Eu(PMS)3 (Comparative Example 11) = 1

[[record]]
molecule = "O=S(=O)([N-]S(=O)(=O)C(F)(F)F)C(F)(F)F.O=S(=O)([N-]S(=O)(=O)C(F)(F)F)C(F)(F)F.O=S(=O)([N-]S(=O)(=O)C(F)(F)F)C(F)(F)F.O=S(c1ccccc1)c1ccccc1.O=S(c1ccccc1)c1ccccc1.O=S(c1ccccc1)c1ccccc1.O=S(c1ccccc1)c1ccccc1.O=S(c1ccccc1)c1ccccc1.O=S(c1ccccc1)c1ccccc1.O=S(c1ccccc1)c1ccccc1.O=S(c1ccccc1)c1ccccc1.[Eu+3]"
reported = 710

[[record]]
molecule = "O=S(=O)([N-]S(=O)(=O)C(F)(F)F)C(F)(F)F.O=S(=O)([N-]S(=O)(=O)C(F)(F)F)C(F)(F)F.O=S(=O)([N-]S(=O)(=O)C(F)(F)F)C(F)(F)F.[Eu+3] [Eu(PMS)3, reference compound]"
reported = 1.0

[[record]]
molecule = "O=P(c1ccccc1)(c1ccccc1)c1ccccc1.O=P(c1ccccc1)(c1ccccc1)c1ccccc1.O=P(c1ccccc1)(c1ccccc1)c1ccccc1.O=P(c1ccccc1)(c1ccccc1)c1ccccc1.O=P(c1ccccc1)(c1ccccc1)c1ccccc1.O=P(c1ccccc1)(c1ccccc1)c1ccccc1.O=P(c1ccccc1)(c1ccccc1)c1ccccc1.O=P(c1ccccc1)(c1ccccc1)c1ccccc1.O=S(=O)([N-]S(=O)(=O)C(F)(F)F)C(F)(F)F.O=S(=O)([N-]S(=O)(=O)C(F)(F)F)C(F)(F)F.O=S(=O)([N-]S(=O)(=O)C(F)(F)F)C(F)(F)F.[Eu+3]"
reported = 15466


Please report the recorded Relative luminescence intensity for O=S(=O)([N-]S(=O)(=O)C(F)(F)F)C(F)(F)F.O=S(=O)([N-]S(=O)(=O)C(F)(F)F)C(F)(F)F.O=S(=O)([N-]S(=O)(=O)C(F)(F)F)C(F)(F)F.[Eu+3].c1cnc2c(c1)ccc1cccnc12.c1cnc2c(c1)ccc1cccnc12.c1cnc2c(c1)ccc1cccnc12.c1cnc2c(c1)ccc1cccnc12 .
5566

* * *

Experiment: Miscibility with solvents, visual evaluation at 5 wt %
Format: physicochemical
Parameters: key: ⊚: dissolves at room temperature; ◯: dissolves when heated for 5 minutes at 40° C.; Δ: dissolves under heating, but cooling precipitates crystals; X: does not dissolve
Conditions: complex added at 5 wt %
PROPERTY_MEASURED: Miscibility, Acetone

[[record]]
molecule = "O=P(c1ccccc1)(c1ccccc1)c1ccccc1.O=P(c1ccccc1)(c1ccccc1)c1ccccc1.O=P(c1ccccc1)(c1ccccc1)c1ccccc1.O=P(c1ccccc1)(c1ccccc1)c1ccccc1.O=P(c1ccccc1)(c1ccccc1)c1ccccc1.O=P(c1ccccc1)(c1ccccc1)c1ccccc1.O=P(c1ccccc1)(c1ccccc1)c1ccccc1.O=P(c1ccccc1)(c1ccccc1)c1ccccc1.O=S(=O)([N-]S(=O)(=O)C(F)(F)F)C(F)(F)F.O=S(=O)([N-]S(=O)(=O)C(F)(F)F)C(F)(F)F.O=S(=O)([N-]S(=O)(=O)C(F)(F)F)C(F)(F)F.[Yb+3] [Yb(PMS)3(TPPO)8]"
property_measured = "Miscibility, Acetone"
reported = "⊚"


* * *

Assay: Miscibility with solvents, visual evaluation at 5 wt %
Assay type: physicochemical
Set-up: key: ⊚: dissolves at room temperature; ◯: dissolves when heated for 5 minutes at 40° C.; Δ: dissolves under heating, but cooling precipitates crystals; X: does not dissolve
Conditions: complex added at 5 wt %
PROPERTY_MEASURED: Miscibility, Water

[[record]]
molecule = "O=P(c1ccccc1)(c1ccccc1)c1ccccc1.O=P(c1ccccc1)(c1ccccc1)c1ccccc1.O=P(c1ccccc1)(c1ccccc1)c1ccccc1.O=P(c1ccccc1)(c1ccccc1)c1ccccc1.O=P(c1ccccc1)(c1ccccc1)c1ccccc1.O=P(c1ccccc1)(c1ccccc1)c1ccccc1.O=P(c1ccccc1)(c1ccccc1)c1ccccc1.O=P(c1ccccc1)(c1ccccc1)c1ccccc1.O=S(=O)([N-]S(=O)(=O)C(F)(F)F)C(F)(F)F.O=S(=O)([N-]S(=O)(=O)C(F)(F)F)C(F)(F)F.O=S(=O)([N-]S(=O)(=O)C(F)(F)F)C(F)(F)F.[Tb+3]"
property_measured = "Miscibility, Water"
reported = "X"

[[record]]
molecule = "O=S(=O)([N-]S(=O)(=O)C(F)(F)F)C(F)(F)F.O=S(=O)([N-]S(=O)(=O)C(F)(F)F)C(F)(F)F.O=S(=O)([N-]S(=O)(=O)C(F)(F)F)C(F)(F)F.O=S(c1ccccc1)c1ccccc1.O=S(c1ccccc1)c1ccccc1.O=S(c1ccccc1)c1ccccc1.O=S(c1ccccc1)c1ccccc1.O=S(c1ccccc1)c1ccccc1.O=S(c1ccccc1)c1ccccc1.O=S(c1ccccc1)c1ccccc1.O=S(c1ccccc1)c1ccccc1.[Tb+3]"
property_measured = "Miscibility, Water"
reported = "X"

[[record]]
molecule = "O=S(=O)([N-]S(=O)(=O)C(F)(F)F)C(F)(F)F.O=S(=O)([N-]S(=O)(=O)C(F)(F)F)C(F)(F)F.O=S(=O)([N-]S(=O)(=O)C(F)(F)F)C(F)(F)F.[Nd+3] [Nd(PMS)3, reference compound]"
property_measured = "Miscibility, Water"
reported = "⊚"

[[record]]
molecule = "O=S(=O)([N-]S(=O)(=O)C(F)(F)F)C(F)(F)F.O=S(=O)([N-]S(=O)(=O)C(F)(F)F)C(F)(F)F.O=S(=O)([N-]S(=O)(=O)C(F)(F)F)C(F)(F)F.[Nd+3].c1cnc2c(c1)ccc1cccnc12.c1cnc2c(c1)ccc1cccnc12.c1cnc2c(c1)ccc1cccnc12.c1cnc2c(c1)ccc1cccnc12"
property_measured = "Miscibility, Water"
reported = "X"

